system: glycogen synthase kinase-3 (GSK3A per assay name; protocol says GSK3B); assay: GSK3 binders on small-molecule microarrays, primary screen, biochemical, small-molecule microarray, 635 nm fluorescence, GSK3A (AID 1103); details: small-molecule microarray binding, fluorescence 635 nm; higher = more signal; note: the record names both GSK3A and GSK3B
The entries below come with measured composite z-score values attached.
Provide a numeric answer; units are not to be included.

Some solved cases for reference:
{"Compound": "CC(=O)NCCCC[C@@H]1NC(=O)[C@@H]2C[C@H](C(=O)NCCCCCNC(=O)CS)[C@H](c3cccc(OCCO)c3)N2C1=O", "composite z-score": -0.0868}
{"Compound": "C=CCN1C(=O)[C@@]2(CC=C)N=C(c3ccc(OCCCO)cc3)O[C@H]2c2ccccc21", "composite z-score": 1.32}
{"Compound": "COC(=O)[C@]1(CCC(=O)OC(C)(C)C)N=C(c2ccc(OCCCO)cc2)O[C@@H]1c1ccccc1CN=[N+]=[N-]", "composite z-score": -0.109}

Any idea what its composite z-score is? The molecule is CCCC[C@H]1OB(O)C[C@H]2C1=C(COC)Cn1c(=O)n(-c3ccccc3)c(=O)n12
0.302

----------
system: Fibrinogen (Alexa647-labelled); assay: fibrinogen binders on compound microarrays, profiling panel, artefact control for SMM control-protein annotation, biochemical, small-molecule microarray, 635/667 nm fluorescence (AID 1131); conditions: fibrinogen-A647 binding fluorescence, higher = more signal;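 note: z-score merges 667 nm fluorescence with per-spot signal-to-noise over triplicate slides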
Use 0.5 as the dividing line for composite z-score, with the line itself on the condition met side and lower values as condition not met.

{"Compound": "CN(C)C(=O)[C@]1(Cc2ccccc2N=[N+]=[N-])N=C(c2ccc(OCCCO)cc2)O[C@@H]1c1ccccc1N=[N+]=[N-]", "Class name": "condition met"}
{"Compound": "CCOC(=O)C1=CC[C@@H](c2ccccc2)N(S(=O)(=O)c2ccc(C)cc2)[C@H]1c1ccccc1C", "Class name": "condition not met"}
{"Compound": "C=C(COC)/C(=C/C[C@@H](OC(=O)c1ccncc1)c1ccc(CO)o1)c1cc(C(=O)OC)ccc1OC", "Class name": "condition met"}
{"Compound": "COCCOC(=O)N1C(=O)[C@@]2(c3cc(C#CC4(O)CCCCCC4)ccc31)[C@H](c1ccccc1OCCO)N1[C@H](c3ccccc3)[C@H](c3ccccc3)OC(=O)[C@H]1[C@@H]2C(=O)N1CCN(c2ncccn2)CC1", "Class name": "condition met"}
{"Compound": "C=C(CCCC)/C(=C/C[C@@H](OC(=O)c1ccncc1)c1ccc(OCCO)cc1)c1cc(C(=O)OC)ccc1OC", "Class name": "condition not met"}
{"Compound": "[N-]=[N+]=NCc1ccccc1[C@@H]1OC(c2ccc(OCCCO)cc2)=N[C@]1(Cc1ccccc1)C(=O)NCC(O)CO (some centres undefined)", "Class name": "condition met"}
{"Compound": "COCCOC(=O)N1C(=O)[C@@]2(c3cc(C#CCCO)ccc31)[C@H](C(N)=O)[C@H]1C(=O)O[C@H](c3ccccc3)[C@H](c3ccccc3)N1[C@@H]2c1ccc(O)cc1", "Class name": "condition not met"}
{"Compound": "O=C(CS)NCCCCCCNC(=O)[C@@H]1C[C@@H]2C(=O)N[C@@H](Cc3ccccc3)C(=O)N2[C@@H]1c1cccc(OCCO)c1", "Class name": "condition met"}
{"Compound": "CC(C)c1ccc(NN2C(C(O)c3ccc(B(O)O)cc3)C=CC3C(=O)N(c4ccccc4)C(=O)C32)cc1 (centres undefined)", "Class name": "condition met"}
{"Compound": "CN1C(=O)C2C=CC(C(O)C#Cc3ccccc3)N(N3CCCCC3)C2C1=O (centres undefined)", "Class name": "condition met"}

Hi, just wondering whether C=CC[C@@]12N=C(c3ccc(OCCCO)cc3)O[C@@H]1c1ccccc1N(C)C2=O shows composite z-score of 0.5 or higher.
condition not met

What about COC(=O)[C@@]1(Cc2ccc(F)cc2)[C@H]2c3cc(C(=O)N(C)C)n(Cc4ccc(Cl)c(C(F)(F)F)c4)c3C[C@H]2CN1C(=O)c1ccccc1 ?
condition met

Request: O=C(N1CCCCC1)[C@]1(Cc2ccccc2)N=C(c2ccc(OCCCO)cc2)O[C@@H]1c1ccccc1
condition met
